# credit: paper PMC8474115

Reported values: Ki for h5-HT2AR (Homo sapiens, UniProt P28223), one per item.
Measured Property: Ki (µM)

# Smiles Notation, Experimental System, Val
rows = [
    ("O=S(=O)(c1cccc(Cl)c1)n1ccc2c(N3CCNCC3)nc3ccccc3c21", "h5-HT2AR (Homo sapiens, UniProt P28223)", 1.67),
    ("Cc1cccc(S(=O)(=O)n2ccc3c(N4CCNCC4)nc4ccccc4c32)c1", "h5-HT2AR (Homo sapiens, UniProt P28223)", 4.63),
]

----------
Experimental System: Serotonin 5-HT1A (Homo sapiens, UniProt P08908)
Construct: Eurofins (contract assay)
Sequence (P08908 whole entry): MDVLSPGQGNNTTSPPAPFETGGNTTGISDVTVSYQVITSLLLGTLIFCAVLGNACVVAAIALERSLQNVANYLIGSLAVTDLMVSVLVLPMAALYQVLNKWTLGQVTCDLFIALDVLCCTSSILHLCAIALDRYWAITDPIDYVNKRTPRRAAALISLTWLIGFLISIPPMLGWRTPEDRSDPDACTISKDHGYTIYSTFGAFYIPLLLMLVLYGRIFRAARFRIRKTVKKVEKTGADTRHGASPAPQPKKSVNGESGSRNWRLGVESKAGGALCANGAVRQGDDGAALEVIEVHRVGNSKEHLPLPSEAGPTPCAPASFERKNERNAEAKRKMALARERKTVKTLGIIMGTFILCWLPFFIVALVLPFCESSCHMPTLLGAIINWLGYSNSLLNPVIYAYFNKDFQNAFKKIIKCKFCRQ
Procedure Text: Eurofins SafetyScreen panel
Type: binding
pIC50: −log10 of the molar value.

# Molecule, pIC50
measured = [
    ("O=S(=O)(c1cccc(F)c1)n1ccc2c(N3CCNCC3)nc3ccccc3c21 [FPPQ]", 6.07),
]
